# Target or test system: Transcription factor p65 (Homo sapiens)
# Assay name: Inhibition of NF-kappaB DNA binding by EMSA
Class criterion met: IC100 at least 10 µM. Class criterion not met: IC100 below 10 µM.

Here are 8 molecules together with their reported answers.
- C=C(C)C(=O)O[C@@H]1/C=C(\C=O)CCC[C@@]2(CO2)[C@H](O)[C@H]2OC(=O)C(=C)[C@@H]21: criterion not met
- C=C1C(=O)O[C@@H]2C[C@@H](C)[C@@H]3C=CC(=O)[C@@]3(C)[C@@H](OC(=O)C(C)C)[C@H]12: criterion met
- C=C1C(=O)O[C@@H]2[C@H]3C(C)=CC[C@H]3[C@](C)(O)C[C@H](OC(C)=O)[C@@H]12: criterion met
- C=C1C[C@@H]2OC(=O)C(=C)[C@H]2[C@H](O)/C=C(\C)CCC1=O: criterion met
- C=C1C(=O)O[C@@H]2/C=C(/C)[C@]3(O)O[C@](C)(C[C@@H](OC(=O)/C(C)=C\C)[C@@H]12)C[C@@H]3O: criterion met
- C=C1C(=O)O[C@H]2C/C(CO)=C/CC/C(COC(=O)C(C)C)=C/C[C@H]12: criterion met
- C=C1C(=O)O[C@@H]2C[C@@]3(C)[C@H](O)CC[C@@](O)(COC(=O)C(C)C)[C@@H]3C[C@H]12: criterion met
- C=C1C(=O)O[C@@H]2/C=C(/CO)[C@@]3(O)CC[C@@](C)(C[C@@H](OC(=O)/C(C)=C\C)[C@@H]12)O3: criterion met

Problem: Given the entry C=C1C(=O)C[C@H]2C(=C)C(=O)O[C@@H]2/C=C(\COC(=O)C(C)C)CC[C@H]1OC , answer whether its IC100 meets or surpasses 10 µM.
Solution: criterion met

Problem: Exam item: decide whether the reported IC100 for C=C1C(=O)C=C2[C@H]1C[C@@H]1C(=C)C(=O)O[C@H]1C[C@@H]2C is at least 10 µM.
Solution: criterion not met

Problem: Check the entry C=C1C(=O)O[C@H]2CC(=C)[C@H](O)CC/C(C)=C/[C@@H](O)[C@H]12 : does IC100 equal or exceed 10 µM?
Solution: criterion met

Problem: Is the recorded value of IC100 equal to or greater than 10 µM for this molecule? C=C1C(=O)O[C@H]2/C=C(\C)CC/C=C(\C)[C@@H](OC(=O)[C@@]3(C)O[C@H]3C)[C@H](O)[C@@H]12
Solution: criterion met

Problem: Has C=C1C(=O)O[C@@H]2[C@H]3C(CO)=CC(=O)C3=C(C)CC[C@@H]12 a recorded IC100 greater than or equal to 10 µM?
Solution: criterion met
